System Under Test: Factor X, P00742
Sequence (P00742 whole entry, looked up): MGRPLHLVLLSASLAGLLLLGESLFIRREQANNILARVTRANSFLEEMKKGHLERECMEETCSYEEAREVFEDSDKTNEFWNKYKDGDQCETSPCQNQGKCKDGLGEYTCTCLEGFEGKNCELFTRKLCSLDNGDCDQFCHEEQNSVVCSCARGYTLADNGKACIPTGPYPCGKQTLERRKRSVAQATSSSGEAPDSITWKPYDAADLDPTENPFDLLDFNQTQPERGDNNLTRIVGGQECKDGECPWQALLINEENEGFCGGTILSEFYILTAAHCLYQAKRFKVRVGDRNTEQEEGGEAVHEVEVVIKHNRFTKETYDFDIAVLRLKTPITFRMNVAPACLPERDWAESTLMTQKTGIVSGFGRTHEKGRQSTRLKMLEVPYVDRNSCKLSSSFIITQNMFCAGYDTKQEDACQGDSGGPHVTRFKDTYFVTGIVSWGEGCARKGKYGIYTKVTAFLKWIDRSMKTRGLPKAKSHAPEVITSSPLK
Measurement Label: kcat

Challenge: State, in one line, measured kcat of FIXa-Y155F/N260S/R318Y/R338E/T343R/R403E/E410N (protein) chain 1: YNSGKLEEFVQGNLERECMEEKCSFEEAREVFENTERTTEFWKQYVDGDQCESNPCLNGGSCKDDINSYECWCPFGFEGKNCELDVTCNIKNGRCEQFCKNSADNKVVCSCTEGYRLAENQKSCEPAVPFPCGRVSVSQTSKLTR chain 2: VVGGEDAKPGQFPWQVVLNGKVDAFCGGSIVNEKWIVTAAHCVETGVKITVVAGEHNIEETEHTEQKRNVIRIIPHHNYSAAINKYNHDIALLELDEPLVLNSYVTPICIADKEYTNIFLKFGSGYVSGWGRVFHKGYSALVLQYLRVPLVDRATCLESTKFRIYNNMFCAGFHEGGRDSCQGDSGGPHVTEVEGTSFLTGIISWGEECAMKGKYGIYTKVSEYVNWIKNKTKLT
Response given: 5.8 s⁻¹
